molecular target: T1, human Amyloid beta 1-42 peptide (Homo sapiens, UniProt P05067); test: Surface Plasmon Resonance kinetic profiling of purified scFv (ProteOn); assay type: binding; conditions: biotinylated human Amyloid beta 1-42 on streptavidin chip
T1 construct: biotinylated human Amyloid beta 1-42 peptide (rpeptide, USA; cat: A1117); purchased rPeptide, USA A1117; host or cells: synthetic peptide
T1 sequence (P05067 672-713): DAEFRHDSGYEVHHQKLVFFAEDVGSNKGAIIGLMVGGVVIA
endpoint: ka (M⁻¹ s⁻¹)
A number alone suffices; assume M⁻¹ s⁻¹.

Example molecules with recorded ka:
molecule | ka, M⁻¹ s⁻¹
Abet0332: optimized anti-Aβ1-42 clone derived from Abet0144-GL (protein, left off: small tags and cut ends, optimized anti-Aβ1-42 clone derived from Abet0144-GL) scFv (part 1 of 2): EVQLLESGGGLVQPGESLRLSCAASSDSWHTDIMWWVRQAPGKRLEWVSVIGNSNKKIAYADSVKGRFTISRDNSKNTLYLQMNSLRAEDTAVYYCAREWMDHSRPYYYYGMDVWGQGTLVTVSS scFv (part 2 of 2): SYELTQPPSVSVSPGQTASITCSGHNIGAKWVSWYQQKPGQSPILVIYRDDKRPSGIPERFSASNSGHTATLTISGTQATDEADYYCQAQGQVTRSFGGGTKLTVL | 329000
Abet0377: optimized anti-Aβ1-42 clone from quaternary library (protein, left off: small tags and cut ends, optimized anti-Aβ1-42 clone from quaternary library) scFv (part 1 of 2): EVQLLESGGGLVQPGGSLRLSCAASGFNFNEQTLWWVRQAPGKGLEWVSVIGVGTKNIAYADTVKGRFTISRDNSKNTLYLQMNSLRAEDTAVYYCAREWMDHSRPYYYYGMDVWGQGTLVTVSS scFv (part 2 of 2): SYELTQPPSVSVSPGQTASITCSGHNTEHKWISWYQQKPGQSPVLVIYRDDKRPSGIPERFSATNSGHTATLTISGTQATDEADYYCSSQDTVTRVFGGGTKLTVL | 196000
Abet0369: optimized anti-Aβ1-42 clone derived from Abet0144-GL (protein, left off: small tags and cut ends, optimized anti-Aβ1-42 clone derived from Abet0144-GL) scFv (part 1 of 2): EVQLLESGGGLVQPGGSLRLSCAASSFQISKNTMWWVRRAPGKGLEWVSVIGKDETRFNYADSVKGRFTISRDNSKNTLYLQMNSLRAEDTAVYYCAREWMDHSRPYYYYGMDVWGQGTLVTVSS scFv (part 2 of 2): SYGLTQPPSVSVSPGQTASITCSGRNIGDSWVAWYQQKPGQSPVLVIYRDDKRPSGIPERFSASNSGHTATLTISGTQATDEADYYCSSQDTVTRVFGGGTKLTVL | 327000
Abet0319: optimized anti-Aβ1-42 clone derived from Abet0144-GL (protein, left off: small tags and cut ends, optimized anti-Aβ1-42 clone derived from Abet0144-GL) scFv (part 1 of 2): EVQLLESGGGLVQPGGSLRLSCAASVSVYNKDTMWWVRQAPGKGLEWVSVIGSSGGTTVYADSVKGRFTISRDNSKNTLYLQMNSLRAEDTAVYYCAREWMDHSRPYYYYGMDVWGQGTLVTVSS scFv (part 2 of 2): SYELTQPPSVSVSPGQTASITCSGHNIMDKWVSWYQQKPGRSPALVIYRDDKRPSGIPERFSASNSGHTATLTISGTQATDEADYYCSSQDTVTRVFGGGTKLTVL | 329000
Abet0144-GL: parent anti-Aβ antibody clone, germlined; VH domain SEQ ID NO: 20 and VL domain SEQ ID NO: 29 (antibody, listed as Homo sapiens, V domains shown, /note=“Abet0144-GL”) VH: EVQLLESGGGLVQPGGSLRLSCAASGFTFSVYTMWWVRQAPGKGLEWVSVIGSSGGTTVYADSVKGRFTISRDNSKNTLYLQMNSLRAEDTAVYYCAREWMDHSRPYYYYGMDVWGQGTLVTVSS VL: SYELTQPPSVSVSPGQTASITCSGHNLEDKFASWYQQKPGQSPVLVIYRDDKRPSGIPERFSASNSGHTATLTISGTQAMDEADYYCQAQDSTTRVFGGGTKLTVL | 116000

Answer with reported ka of Abet0321b: optimized anti-Aβ1-42 clone derived from Abet0144-GL (protein, left off: small tags and cut ends, optimized anti-Aβ1-42 clone derived from Abet0144-GL) scFv (part 1 of 2): EVQLLESGGGLVQPGGSLRLSCAASAYHSNHDPMWWVRQAPGKGLEWVSVIGSSGGTTAYADSVKGRFTISRDNSKNTLYLQMNSLRAEDTAVYYCAREWMDHSRPYYYYGMDVWGQGTLVTVSS scFv (part 2 of 2): SYELTQPPSVSVSPGQTASITCSGHNLEDKFASWYQQKPGQSPVLIIYRDDKRPSGIPERFSASNSGHTATLTISGTQATDEADYYCSSQDTVTRVFGGGTKLTVL 150000

// Input: Abet0373: optimized anti-Aβ1-42 clone derived from Abet0144-GL (protein, left off: small tags and cut ends, optimized anti-Aβ1-42 clone derived from Abet0144-GL) scFv (part 1 of 2): EVQLLESGGGLVQPGGSLRLSCVASGFDFERSVMWWVRQAPGKRLEWVSVIGSGKTNITYADSVKGRFTISRDNSKNTLYLQMNSLRAEDTAVYYCAREWMDHSRPYYYYGMDVWGQGTLVTVSS scFv (part 2 of 2): SYELTQPPSVSVSPGQTASITCSGHNLEDKFASWYQQKPGQSPVLVIYRDDKRPSEIPERFSASNSGHTATLTISGTQATDEADYYCSSQDTVTRVFGGGTKLTVL . Output its ka only. 185000

Identify the reported ka for the following entry. Abet0374: optimized anti-Aβ1-42 clone derived from Abet0144-GL (protein, left off: small tags and cut ends, optimized anti-Aβ1-42 clone derived from Abet0144-GL) scFv (part 1 of 2): EVQLLESGGGLVQPGGSLRLSCAASGFQFKDTPMWWVRQAPGKGLEWVSVIGDQNHKKAYADSVKGRFTISRDNSKNTLYLQMNSLRAEDTAVYYCAREWMDHSRPYYYYGMDAWGQGTLVTVSS scFv (part 2 of 2): SYELTQPPSVSVTPGQTASITCSGHNLGGKFASWYQQKPGQSPVLVIYRDDKRPSGIPERFSASNFGHTATLTISGTQATDEADYYCSSQDTVTRVFGGGTKLTVL 256000

Answer with the recorded ka for the molecule listed here: Abet0322b: optimized anti-Aβ1-42 clone derived from Abet0144-GL (protein, left off: small tags and cut ends, optimized anti-Aβ1-42 clone derived from Abet0144-GL) scFv (part 1 of 2): EVQLLESGGGLVQPGGSLRLSCAASNEEFQYNPMWWVRQAPGKGLEWVSVIGSSGGATVYADAVKGRFTISRDNSENTLYLQMNSLRAEDTAVYYCAREWMDHSRPYYYYGMDVWGQGTLVTVSS scFv (part 2 of 2): SYELTQPPSVSVSPGQTASITCSGHNLGDKFASWYQQKPGQSPVLVIYRDDKRPSEIPERFSASNSGHTATLTISGTQATDEADYYCSSQDTVTRVFGGGTKLTVL 203000
